target: full-length recombinant rat vitamin D receptor (Rattus norvegicus, UniProt P13053); experiment: biochemical
Sequence (P13053 whole entry): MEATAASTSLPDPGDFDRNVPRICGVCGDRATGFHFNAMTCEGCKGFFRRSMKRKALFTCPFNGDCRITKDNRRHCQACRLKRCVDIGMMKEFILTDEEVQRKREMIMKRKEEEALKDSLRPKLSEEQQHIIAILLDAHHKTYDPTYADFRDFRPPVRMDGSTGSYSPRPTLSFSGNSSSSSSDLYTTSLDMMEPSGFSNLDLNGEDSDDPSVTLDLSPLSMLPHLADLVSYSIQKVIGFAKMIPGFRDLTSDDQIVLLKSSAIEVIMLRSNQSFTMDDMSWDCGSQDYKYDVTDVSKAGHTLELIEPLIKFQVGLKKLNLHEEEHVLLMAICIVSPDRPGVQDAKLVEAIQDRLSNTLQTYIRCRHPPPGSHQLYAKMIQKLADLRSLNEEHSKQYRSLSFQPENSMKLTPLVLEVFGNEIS
assay.readout: pKi
Numbers only, as −log10 of the molar value.

API: value(readout=pKi, system=full-length recombinant rat vitamin D receptor (Rattus norvegicus, UniProt P13053)) for record CC(CCCCO)C1CCC2C(=CC=C3CC(O)C(C)C(O)C3)CCCC21C (stereo not shown)
9.00

Reference source: patent US8193169B2
